From: ChEMBL document CHEMBL1201862

System: Malme-3M
Experiment: NCI tumour cell line growth inhibition, 48 h
Calls of active or inactive are those of the source. No stated cut-off is given here; in the data, active = GI50 up to about 1.1 µM and inactive = higher.
Please respond with reported GI50 for every item in the list.

## Task Consider the molecule shown here: `CN(C)CCn1cnc2sc3ccccc3c21` What is its recorded GI50?
## Result > 100 µM (inactive)

## Task Consider the molecule shown here: Cc1oc2c(C)c3oc(=O)cc(C)c3cc2c1CN1C(=O)C2OCCOCCOCCOCCOCCO[C@H]2C1=O (stereo not given in full) What is its recorded GI50?
## Result > 100 µM (inactive)

## Task Consider the molecule shown here: COc1cc(/C=C2/SC(c3ccccc3)N(c3cc(Cl)ccc3Cl)C2=O)cc(OC)c1OC (stereo not given) What is its recorded GI50?
## Result 62.8 µM (inactive)

## Task Consider the molecule shown here: c1ccc(C2=NOC3COc4ccccc4OCC23)cc1 (stereo not given) What is its recorded GI50?
## Result > 100 µM (inactive)

## Task Consider the molecule shown here: CCSC12OC3(CCCCCN3C1=O)C1C(=O)N(c3ccccc3)C(=O)C12 (stereo not given) What is its recorded GI50?
## Result > 100 µM (inactive)

====

System: MDA-MB-435
Test: NCI tumour cell line growth inhibition, 48 h
Active and inactive are the calls of the source. Cut-off read from the data, not from the text of the source: active = GI50 up to about 1.1 µM and inactive = higher.
Pick one: t for active, f for inactive

## Task I'd appreciate the recorded outcome for `CSc1nc(-c2ccccc2)[nH]c(=O)n1` from this test.
## Result f

## Task I'd appreciate the recorded outcome for `O=c1[nH]nc(Cc2ccccc2)n1-n1cnnc1` from this test.
## Result f

## Task I'd appreciate the recorded outcome for O=C(O)CN(CC(=O)O)C1CCCCC1N(CC(=O)O)CC(=O)NCCN=C=S (stereo not given) from this test.
## Result f

## Task I'd appreciate the recorded outcome for CC(=O)CCC[C@@H](C)[C@@H]1O[C@H]([C@@]2(C)CCC(=O)O2)C[C@H]2C(CSc3ccccc3)C(=O)O[C@@H]12 (stereo not given in full) from this test.
## Result f

## Task I'd appreciate the recorded outcome for `COc1cc(/C=C2/C(=O)N(C(=O)c3ccccc3O)N=C2C)cc(OC)c1OC` from this test.
## Result t

## Task I'd appreciate the recorded outcome for `CC(C)(C)OC(=O)N[C@@H](Cc1ccccc1)C(=O)N1CC[C@@H](C(=O)N2[C@H]3CC4CC[C@@]3(CS2(=O)=O)C4(C)C)N1` from this test.
## Result f

## Task I'd appreciate the recorded outcome for `CC(=O)Nc1sccc1S(=O)(=O)c1ccc(Cl)cc1` from this test.
## Result f

## Task I'd appreciate the recorded outcome for Cc1cccc2c1C(=O)C1(Cc3ccccc3C1=O)C2 (stereo not given) from this test.
## Result f

## Task I'd appreciate the recorded outcome for CCSC12OC3(CCCCCN3C1=O)C1C(=O)N(c3ccccc3)C(=O)C12 (stereo not given) from this test.
## Result f

## Task I'd appreciate the recorded outcome for `O=C(C[C@@H]1CCCN2CCCC[C@H]12)N1c2ccccc2Sc2ccc(Cl)cc21` from this test.
## Result f

====

Tested on: U-251
Assay: NCI tumour cell line growth inhibition, 48 h
Calls of active or inactive are those of the source. No stated cut-off is given here; in the data, active = GI50 up to about 1.1 µM and inactive = higher.
readout: GI50

## Task Consider the compound shown here: O=c1[nH]c2cc(Cl)ccc2nc1/C(=N/Nc1ccccc1)C(O)c1ccco1 (stereo not drawn) What is its recorded GI50?
## Result > 100 µM (inactive)

## Task Consider the compound shown here: CCCCC(C(=O)C(=O)NC1C2CC3CC(C2)CC1C3)C(=O)C(C)C (stereo not drawn) What is its recorded GI50?
## Result > 100 µM (inactive)

## Task Consider the compound shown here: `[N-]=[N+]=NC1=C(c2ccccc2)C(=O)c2cccc3cccc1c23` What is its recorded GI50?
## Result > 100 µM (inactive)

## Task Consider the compound shown here: `NC(=S)NN=C1Cc2ccccc2C1` What is its recorded GI50?
## Result > 100 µM (inactive)

## Task Consider the compound shown here: `Cc1nc2c(n1Cc1ccc(F)cc1)C(=O)c1ccccc1C2=O` What is its recorded GI50?
## Result 6.56 µM (inactive)

## Task Consider the compound shown here: `CC1(C)CC(C)(C)CC(O)(C2(O)CC(C)(C)CC(C)(C)C2)C1` What is its recorded GI50?
## Result > 100 µM (inactive)

## Task Consider the compound shown here: COc1cc2c(cc1OC)C1Cc3sccc3CN1CC2 (stereo not drawn) What is its recorded GI50?
## Result > 100 µM (inactive)

## Task Consider the compound shown here: C[C@H](CCC(=O)O)[C@H]1CC[C@H]2[C@@H]3[C@H](O)[C@H](O)[C@@H]4C[C@H](O)CC[C@]4(C)[C@H]3CC[C@]12C [HYOCHOLIC ACID] What is its recorded GI50?
## Result > 100 µM (inactive)

## Task Consider the compound shown here: `Cc1cc(N(CCC#N)CCC#N)ccc1/N=N/c1ccc([N+](=O)[O-])cc1` What is its recorded GI50?
## Result 18.6 µM (inactive)

## Task Consider the compound shown here: `O=c1c(Cc2ccc(Cc3c(O)oc4ccccc4c3=O)cc2)c(O)oc2ccccc12` What is its recorded GI50?
## Result > 100 µM (inactive)

## Task Consider the compound shown here: O=C(/C=C/c1ccccc1Cl)NC1C=Nc2ccc([N+](=O)[O-])cc2NC1 (stereo not drawn) What is its recorded GI50?
## Result 35.3 µM (inactive)

## Task Consider the compound shown here: Cc1cccc2c1C(=O)C1(Cc3ccccc3C1=O)C2 (stereo not drawn) What is its recorded GI50?
## Result > 100 µM (inactive)

## Task Consider the compound shown here: `CC(C)NC1(C(N)=O)CCN(Cc2ccccc2)CC1` What is its recorded GI50?
## Result > 100 µM (inactive)

## Task Consider the compound shown here: `CC1(C)S[C@@H]2[C@H](N3C(=O)c4ccccc4C3=O)CN2[C@H]1NC(=O)N[C@@H]1N2C[C@@H](N3C(=O)c4ccccc4C3=O)[C@H]2SC1(C)C` What is its recorded GI50?
## Result 27 µM (inactive)

## Task Consider the compound shown here: C=CC12CN(C)C3C4COC(CC41)C1(C(=O)Nc4ccccc41)C32 (stereo not drawn) What is its recorded GI50?
## Result > 156 µM (inactive)

## Task Consider the compound shown here: `CC(=O)NNc1nc(C)c(C(/C=C/c2ccccc2O)=N/NC(=O)c2ccncc2)s1` What is its recorded GI50?
## Result > 100 µM (inactive)

## Task Consider the compound shown here: `Nc1cc(C(=O)O)nc(O)n1` What is its recorded GI50?
## Result > 100 µM (inactive)

## Task Consider the compound shown here: CN1N=C(c2ccncc2)OC1c1ccccc1F (stereo not drawn) What is its recorded GI50?
## Result > 100 µM (inactive)

## Task Consider the compound shown here: C=CC1(C)/C(=N\O)C(C)(CC)C(=O)N1O (stereo not drawn) What is its recorded GI50?
## Result > 100 µM (inactive)

## Task Consider the compound shown here: `Oc1ccccc1CNCc1nc2ccccc2[nH]1` What is its recorded GI50?
## Result 41.5 µM (inactive)

## Task Consider the compound shown here: NC(CCc1nc(-c2ccc(Cl)cc2)cs1)C(=O)O (stereo not drawn) What is its recorded GI50?
## Result > 100 µM (inactive)

## Task Consider the compound shown here: NC(=O)CCC(N=C(N)c1csc(C2OC(CO)C(O)C2O)n1)C(=O)O (stereo not drawn) What is its recorded GI50?
## Result > 100 µM (inactive)

## Task Consider the compound shown here: `COc1ccc(/C=N/CCC/N=C/c2ccc(OC)cc2O)c(O)c1` What is its recorded GI50?
## Result 40.6 µM (inactive)

====

Tested on: HCT-116
Test: NCI tumour cell line growth inhibition, 48 h
Active and inactive are the calls of the source. Cut-off read from the data, not from the text of the source: active = GI50 up to about 1.1 µM and inactive = higher.
Pick one: active, inactive

## Task I'd appreciate the recorded outcome for `COC1=N[C@H](C(C)C)C(OC)=N[C@H]1Cc1ccc(C[C@@H]2N=C(OC)[C@@H](C(C)C)N=C2OC)s1` from this test.
## Result inactive

## Task I'd appreciate the recorded outcome for CC(C)(C)C1(c2ccc(C3(c4ccccc4)Oc4ccccc4S3)[nH]2)Oc2ccccc2S1 (stereo not given) from this test.
## Result inactive

## Task I'd appreciate the recorded outcome for CCCCC[C@@H]1OCO[C@@]2(C)/C=C(C)\C=C/C(=O)O[C@H]([C@@H](C)[C@@H](O)[C@H](C)[C@@]3(O)C[C@@H](O[C@H]4C[C@@H](O)[C@H](O)[C@@H](C)O4)[C@H](C)[C@@H](C)O3)[C@@H](OC)/C=C\C=C(\C)C[C@@H]1[C@@H]2O (stereo in doubt) from this test.
## Result active

## Task I'd appreciate the recorded outcome for `Cc1cccc2c1C/C(=C1\CCc3c(C)cccc31)C2=O` from this test.
## Result inactive

## Task I'd appreciate the recorded outcome for `C=CCn1c2ccccc2c2c(C)c3cnccc3c(C)c21` from this test.
## Result inactive
